System: HS 578T breast
procedure text: NCI-60 one-dose screen, 48 h (100 = growth as untreated, 0 = no growth, -100 = all killed)
test parameters: 10 µM unless noted
This is part of a sample that, as a whole, favours compounds with a hit. Of some 83,000 tested, about 20% had one in any assay.
assay readout: growth (%)
Kindly answer with a numeric value in %, unit omitted.

In the examples that follow, each entry is paired with its recorded growth.
compound	test result
COc1ccc2[nH]c(O)c(N=Nc3nc(-c4ccc(Br)cc4)cs3)c2c1	29.3
COc1ccc(C(=O)NNC(=O)CSc2nc3sc4c(c3c(=O)n2-c2ccc(Cl)cc2)CCCC4)cc1	60.4
CCCCCCCCCc1ccc(C(=O)Nc2cc(C)ccc2C(=O)OC)cc1	106

INPUT: # query: growth of entry COc1ccc2ccccc2c1/C=C1\SC(=Nc2ccc(O)cc2)NC1=O
OUTPUT: 24.1

INPUT: # query: growth of entry N#Cc1c(NC(=O)N2CCOCC2)n(-c2ccc(OC(F)(F)F)cc2)c2cc(F)ccc12
OUTPUT: 102
